assay: Toxicity liver stage against HepG2, at 10uM; assay type: cell-based; parameters: test concentration 10 uM, cell line HepG2-A16-CD81EGFP; conditions: human, HepG2-A16-CD81EGFP cells; read-out: INHIBITION
recorded-metric: cytotoxicity at 10 µM (%)
Answer format: numeric, % implied, no suffix.

Solved cases below.
# compound, unit-tag, cytotoxicity at 10 µM
rows = [
    ("CN1CC(=O)c2sc(NCCc3ccccc3)nc2C1", "%", -11),
    ("Cc1cnn(CCNCc2cccc(C#N)c2)c1", "%", -2.01),
    ("Cc1nnc(SCCC(=O)N(C)Cc2ccc(F)cc2Cl)[nH]1", "%", 11.4),
    ("Nc1cc(C(=O)N2CCOC(Cc3cccc(C(F)(F)F)c3)C2)ccn1 (stereo unspecified)", "%", -1.97),
    ("O=C(c1cccs1)N1CCN(CC2CC2)c2ncccc2C1", "%", 0.835),
]

Now look at this entry.
-- ask Look up cytotoxicity at 10 µM for this compound: CC(C)(C)[S+]([O-])CCNC(=O)c1csc(NC2CC2)n1 (stereo unspecified)
-- reply 13.4

###

assay: Toxicity liver stage against HepG2, at 10uM; assay type: cell-based; parameters: test concentration 10 uM, cell line HepG2-A16-CD81EGFP; conditions: human, HepG2-A16-CD81EGFP cells; read-out: INHIBITION
Below, each entry is listed alongside its reported cytotoxicity at 10 µM.
Answer format: numeric, % implied, no suffix.

Solved cases below.
# compound, unit-tag, readout-value
data = [
    ("COc1cc(CN(C)C(=O)Nc2cc(C)on2)ccc1SC", "%", -10.7),
    ("O=C(CCc1ccco1)NCC1CCCN1c1cccnn1 (stereo not given)", "%", -10.8),
]

-- ask Look up cytotoxicity at 10 µM for this compound: COc1cccc(C(=O)N2CCc3nc(C4CCCN4)ncc3C2)c1 (stereo not given)
-- reply -7.28

-- ask Look up cytotoxicity at 10 µM for this compound: COCC1CC2(CCN(Cc3cnn(C)c3)CC2)CN1C(C)C (stereo not given)
-- reply 2.91

-- ask Look up cytotoxicity at 10 µM for this compound: c1csc(CN2C[C@H]3CCC[C@@]3(COCC3CCOCC3)C2)n1
-- reply -1.99

-- ask Look up cytotoxicity at 10 µM for this compound: CC(C)N(C)S(=O)(=O)N(Cc1cccs1)CC1CCCO1 (stereo not given)
-- reply -53.7

-- ask Look up cytotoxicity at 10 µM for this compound: O=S(=O)(NC1CCCCC12OCCO2)c1cc(F)cc(F)c1 (stereo not given)
-- reply -3.55

-- ask Look up cytotoxicity at 10 µM for this compound: Cc1nnc2n1CCN(Cc1ncc(-c3ccc(F)cc3)o1)C2
-- reply -10.7

-- ask Look up cytotoxicity at 10 µM for this compound: COCc1ccccc1NC(=O)NC(C)c1ccc(C)o1 (stereo not given)
-- reply 0.205

-- ask Look up cytotoxicity at 10 µM for this compound: CN(CCN1CCOCC1)S(=O)(=O)CC1CCCC1
-- reply 10.2

-- ask Look up cytotoxicity at 10 µM for this compound: Cc1cnn(C2CN(CC(O)Cn3cccn3)C2)c1 (stereo not given)
-- reply 9.12

-- ask Look up cytotoxicity at 10 µM for this compound: CCN(CC1CCOC1)C(=O)Nc1ccc(N2CCCC2)nc1 (stereo not given)
-- reply -7.1

-- ask Look up cytotoxicity at 10 µM for this compound: CS(=O)(=O)CCCN1CCOC2(CCc3ccccc32)C1 (stereo not given)
-- reply -5.14

-- ask Look up cytotoxicity at 10 µM for this compound: CCc1n[nH]c(C2CN(C(=O)c3cnc[nH]3)CCO2)n1 (stereo not given)
-- reply -0.481

-- ask Look up cytotoxicity at 10 µM for this compound: c1cc(CN2CCN3C[C@H](Oc4cncnc4)C[C@H]3C2)ccn1
-- reply -108

-- ask Look up cytotoxicity at 10 µM for this compound: CN1CCC(N2CCC(C(=O)N(C)C)CC2)CC1
-- reply -1.82

-- ask Look up cytotoxicity at 10 µM for this compound: CCC(C)CN(C)C(=O)NCc1ccccc1-n1cccn1 (stereo not given)
-- reply 8.75

-- ask Look up cytotoxicity at 10 µM for this compound: CCn1c(CN(C)Cc2cnc(C)s2)nc2c(F)cccc21
-- reply -42

-- ask Look up cytotoxicity at 10 µM for this compound: COc1ccnc(N2CCN(C(=O)CCc3cnn(C)c3)CC2)n1
-- reply 8.72

###

assay: Toxicity liver stage against HepG2, at 10uM; format: cell-based; set-up: test concentration 10 uM, cell line HepG2-A16-CD81EGFP; conditions: human, HepG2-A16-CD81EGFP cells; read-out: INHIBITION
Below, each entry is listed alongside its reported cytotoxicity at 10 µM.
Answer format: numeric, % implied, no suffix.

# molecule, recorded-metric, readout-value
records = [
    ("Cc1ccc(CN2C[C@H](C(=O)N3CCCCO3)[C@@H]3CCO[C@@H]3C2)o1", "cytotoxicity at 10 µM", 9.46),
]

-- ask Look up cytotoxicity at 10 µM for this molecule: COC(=O)c1ccc(NC(=O)CCNCc2ccco2)cc1
-- reply -3.64

-- ask Look up cytotoxicity at 10 µM for this molecule: Cc1ccc(C(=O)N(CCC#N)Cc2ccccn2)cc1C
-- reply 0.665

-- ask Look up cytotoxicity at 10 µM for this molecule: Cc1cnn(CC2CCN(CC(O)c3ccccc3Cl)CC2)c1 (stereo unspecified)
-- reply 4.51

###

test: Toxicity liver stage against HepG2, at 10uM; format: cell-based; parameters: test concentration 10 uM, cell line HepG2-A16-CD81EGFP; settings: human, HepG2-A16-CD81EGFP cells; read-out: INHIBITION
recorded-metric: cytotoxicity at 10 µM (%)
Answer format: numeric, % implied, no suffix.

-- ask Look up cytotoxicity at 10 µM for this molecule: Cc1cc(C)n2ncc(CN3C[C@@H](O)[C@H](Oc4ccccc4)C3)c2n1
-- reply -33

-- ask Look up cytotoxicity at 10 µM for this molecule: Cc1ccc2c(c1)C(NCc1ccccn1)CC2 (configuration not stated)
-- reply 5.47

-- ask Look up cytotoxicity at 10 µM for this molecule: CS(=O)(=O)NCC(=O)N1CCCC1c1noc(C2CC2)n1 (configuration not stated)
-- reply 14.2

-- ask Look up cytotoxicity at 10 µM for this molecule: Cc1cc(C(C)NC(=O)c2c[nH]c(=O)c(Cl)c2)c(C)o1 (configuration not stated)
-- reply 12.5

-- ask Look up cytotoxicity at 10 µM for this molecule: CN1CCN(CC(C)(C)C)CC1CCO (configuration not stated)
-- reply 1.88

-- ask Look up cytotoxicity at 10 µM for this molecule: CCCc1ncc(C(=O)N2CCOc3ncccc32)s1
-- reply 11.6

-- ask Look up cytotoxicity at 10 µM for this molecule: Cn1nccc1CCC(=O)N1CCCC(Cc2cccnc2)C1 (configuration not stated)
-- reply -3.14

-- ask Look up cytotoxicity at 10 µM for this molecule: Cc1nc(Cn2c3c(ccc2=O)CC(NC(N)=O)CC3)cs1 (configuration not stated)
-- reply 9.79

-- ask Look up cytotoxicity at 10 µM for this molecule: CCc1nc(CN(C)C(=O)c2cc(NC(C)=O)ccc2Cl)no1
-- reply -1.71

-- ask Look up cytotoxicity at 10 µM for this molecule: COCCNC(=O)c1ccnn1-c1ccc2ccccn12
-- reply 8.28

-- ask Look up cytotoxicity at 10 µM for this molecule: CC(=O)Cn1ncc(N2CCOCC2)cc1=O
-- reply 7.26

-- ask Look up cytotoxicity at 10 µM for this molecule: CC(NC(=O)CCC(=O)c1cccs1)c1nnc2n1CCC2 (configuration not stated)
-- reply -15.1

###

test: Toxicity liver stage against HepG2, at 10uM; type: cell-based; set-up: test concentration 10 uM, cell line HepG2-A16-CD81EGFP; settings: human, HepG2-A16-CD81EGFP cells; read-out: INHIBITION
recorded-metric: cytotoxicity at 10 µM (%)
Answer format: numeric, % implied, no suffix.

Solved cases below.
# compound, cytotoxicity at 10 µM / %
records = [
    ("COc1ccccc1CC(C)(C)NC(=O)CN(C)C(C)C", 3.04),
    ("Cc1nn(C)c(Cl)c1C1CCCN1Cc1ccccn1 (stereo unspecified)", -0.459),
    ("CN(Cc1ccco1)C(=O)CN1C(=O)c2cc(Cl)c(Cl)cc2C1=O", 1.11),
    ("CC(=O)c1cccc(C(=O)N2C[C@@H](CN3CCCCCC3)[C@@H](CO)C2)c1", 3.32),
    ("CC(CN1CCCC1)C(=O)NCC1CCN(c2cnn(C)c(=O)c2)CC1 (stereo unspecified)", 0.301),
    ("CNC(=O)c1cccc(CN2CCN(c3ccncc3)CC2)c1", -19.7),
    ("Cc1cnn(CC2CCCN2Cc2nnc(C3CC3)o2)c1 (stereo unspecified)", -21.7),
    ("COc1cc(N2CCCC(c3ncc[nH]3)C2)ncn1 (stereo unspecified)", 3.47),
]

-- ask Look up cytotoxicity at 10 µM for this compound: Cc1nc(N2CCCC(C)C2)nc2cc(S(C)(=O)=O)ccc12 (stereo unspecified)
-- reply -24.2

-- ask Look up cytotoxicity at 10 µM for this compound: O=C(NC1CC1)[C@@H]1CCO[C@@H]2CCN(CC3CCC3)C[C@@H]21
-- reply -101

-- ask Look up cytotoxicity at 10 µM for this compound: O=C(CCc1cc(Cl)no1)N1CCCCC1CCn1ccnc1 (stereo unspecified)
-- reply -1.83
